Target: c-di-GMP
Assay: Binding affinity of peptides to c-di-GMP by isothermal titration calorimetry (ITC)
Conditions: Table 4, deletion of single amino acid, 15°C, pH 8.0, read-out: Dissociation constant
Measurement Label: Kd (nM)

substance="Ac-DRRFNSADYKGPRRRKAD-NH2 [compound 32]" units_text=nM obs_value=1040
substance="Ac-DRRRFNSADYKPRRRKAD-NH2 [compound 38]" units_text=nM obs_value=1950
substance="Ac-DRRRFSADYKGPRRRKAD-NH2 [compound 34]" units_text=nM obs_value=1250
substance="Ac-DRRRFNSDYKGPRRRKAD-NH2 [compound 36]" units_text=nM obs_value=340
substance="Ac-DRRRNSADYKGPRRRKAD-NH2 [compound 33]" units_text=nM obs_value=1270
substance="Ac-DRRRFNADYKGPRRRKAD-NH2 [compound 35]" units_text=nM obs_value=440
substance="Ac-DRRRFNSAYKGPRRRKAD-NH2 [compound 37]" units_text=nM obs_value=440

---

Reported pKd values for a set of substances
Biological target: c-di-GMP
Assay: Binding affinity of peptides to c-di-GMP by isothermal titration calorimetry (ITC)
Details: Table 3, peptides with amino acid substitution, 15°C, pH 8.0, read-out: Dissociation constant
pKd: −log10 of the molar value.
Measurement Label: pKd

substance="Ac-DRRAFNSADYKGPRRRKAD-NH2 [compound 16]" assay_target=c-di-GMP obs_value=6.11
substance="Ac-DRRRFNSADYKGPRRRAAD-NH2 [compound 29]" assay_target=c-di-GMP obs_value=6.57
substance="Ac-DRRRFNSADYKAPRRRKAD-NH2 [compound 24]" assay_target=c-di-GMP obs_value=5.39
substance="Ac-DRRRANSADYKGPRRRKAD-NH2 [compound 17]" assay_target=c-di-GMP obs_value=6.85
substance="Ac-DRRRFNSADYKGPRRRKLD-NH2 [compound 30]" assay_target=c-di-GMP obs_value=6.60
substance="Ac-DRRRFNSADYKGARRRKAD-NH2 [compound 25]" assay_target=c-di-GMP obs_value=6.46
substance="Ac-DRRRFNSADYKGPRARKAD-NH2 [compound 27]" assay_target=c-di-GMP obs_value=5.40
substance="Ac-DRRRFNSAAYKGPRRRKAD-NH2 [compound 21]" assay_target=c-di-GMP obs_value=6.82
substance="Ac-DRRRFNSADYKGPRRRKAD-NH2 [SEQ ID NO: 12, AC-DRRRFNSADYKGPRRRKAD-NH2]" assay_target=c-di-GMP obs_value=6.77
substance="Ac-DRRRFNAADYKGPRRRKAD-NH2 [compound 19]" assay_target=c-di-GMP obs_value=6.68
substance="Ac-DRARFNSADYKGPRRRKAD-NH2 [compound 15]" assay_target=c-di-GMP obs_value=5.82
substance="Ac-DRRRFNSADYKGPARRKAD-NH2 [compound 26]" assay_target=c-di-GMP obs_value=5.74
substance="Ac-DRRRFASADYKGPRRRKAD-NH2 [compound 18]" assay_target=c-di-GMP obs_value=6.66
substance="Ac-ARRRFNSADYKGPRRRKAD-NH2 [compound 13]" assay_target=c-di-GMP obs_value=5.82
substance="Ac-DRRRFNSLDYKGPRRRKAD-NH2 [compound 20]" assay_target=c-di-GMP obs_value=7.00
substance="Ac-DRRRFNSADYKGPRRRKAA-NH2 [compound 31]" assay_target=c-di-GMP obs_value=5.76
substance="Ac-DRRRFNSADYAGPRRRKAD-NH2 [compound 23]" assay_target=c-di-GMP obs_value=6.59
substance="Ac-DARRFNSADYKGPRRRKAD-NH2 [compound 14]" assay_target=c-di-GMP obs_value=5.84
substance="Ac-DRRRFNSADAKGPRRRKAD-NH2 [compound 22]" assay_target=c-di-GMP obs_value=5.36
